The reader will find reported FC mutant strain 2 values listed item by item below.
# Test system: HIV mutant strain 2 (E92Q/E138T/G140S/Q148H)
# EXPERIMENTAL DETAILS: Resistance evaluation test (HeLa-CD4 reporter), mutant strain 2
# Type: cell-based
# CONDITION SET: FC=EC50 of mutant strain/EC50 of wild strain, HeLa-CD4 cells
ENDPOINT LABEL: FC mutant strain 2

SMILES CODE: COC[C@@H]1CC[C@H]2N(C)C(=O)c3c(O)c(=O)c(C(=O)NCc4cccc(Cl)c4F)cn3N12
ENDPOINT LABEL: FC mutant strain 2
VALUE: 6.9
--
SMILES CODE: CN1C(=O)c2c(O)c(=O)c(C(=O)NCc3c(F)cc(F)cc3F)cn2N2CCCC[C@@H]12
ENDPOINT LABEL: FC mutant strain 2
VALUE: 14
--
SMILES CODE: CCN1C(=O)c2c(O)c(=O)c(C(=O)NCc3ccc(F)cc3F)cn2N2[C@H](COC)CC[C@@H]12
ENDPOINT LABEL: FC mutant strain 2
VALUE: 38
--
SMILES CODE: CC(C)N1C(=O)c2c(O)c(=O)c(C(=O)NCc3ccccc3F)cn2N2C[C@@H]3CC[C@@H](O3)[C@@H]12
ENDPOINT LABEL: FC mutant strain 2
VALUE: 6.4
--
SMILES CODE: CC(C)N1C(=O)c2c(O)c(=O)c(C(=O)NCc3c(F)cc(F)cc3F)cn2N2C[C@@H]3CC[C@@H](O3)[C@@H]12
ENDPOINT LABEL: FC mutant strain 2
VALUE: 7.4
--
SMILES CODE: CN1C(=O)c2c(O)c(=O)c(C(=O)NCc3ccc(F)cc3F)cn2N2CCCC[C@@H]12
ENDPOINT LABEL: FC mutant strain 2
VALUE: 18
--
SMILES CODE: C[C@H]1CC[C@H]2N(C)C(=O)c3c(O)c(=O)c(C(=O)NCc4cccc(Cl)c4F)cn3N2C1
ENDPOINT LABEL: FC mutant strain 2
VALUE: 7
--
SMILES CODE: CCN1C(=O)c2c(O)c(=O)c(C(=O)NCc3ccc(F)cc3F)cn2N2CCCC[C@@]12C
ENDPOINT LABEL: FC mutant strain 2
VALUE: 16
--
SMILES CODE: CCN1C(=O)c2c(O)c(=O)c(C(=O)NCc3ccc(F)cc3F)cn2N2C[C@@H]3CCC[C@@H](O3)[C@@H]12
ENDPOINT LABEL: FC mutant strain 2
VALUE: 16
--
SMILES CODE: CCN1C(=O)c2c(O)c(=O)c(C(=O)NCc3c(F)cc(F)cc3F)cn2N2C[C@@H](C)C[C@@H]12
ENDPOINT LABEL: FC mutant strain 2
VALUE: 17
--
SMILES CODE: CCN1C(=O)c2c(O)c(=O)c(C(=O)NCc3c(F)cc(F)cc3F)cn2N2C[C@@H](C)CC[C@@H]12
ENDPOINT LABEL: FC mutant strain 2
VALUE: 8.9
--
SMILES CODE: CC(C)N1C(=O)c2c(O)c(=O)c(C(=O)NCc3c(F)cc(F)cc3F)cn2N2[C@H]3COC[C@H]3C[C@@H]12
ENDPOINT LABEL: FC mutant strain 2
VALUE: 34
--
SMILES CODE: CCN1C(=O)c2c(O)c(=O)c(C(=O)NCc3ccc(F)cc3F)cn2N2C[C@@H]3CCC[C@@H](C3)[C@@H]12
ENDPOINT LABEL: FC mutant strain 2
VALUE: 8.7
--
SMILES CODE: CCN1C(=O)c2c(O)c(=O)c(C(=O)NCc3c(F)cc(F)cc3F)cn2N2C[C@@H]3CC[C@@H](C3)[C@@H]12
ENDPOINT LABEL: FC mutant strain 2
VALUE: 7.3
--
SMILES CODE: CN1C(=O)c2c(O)c(=O)c(C(=O)NCc3cccc(F)c3F)cn2N2CCCC[C@@H]12
ENDPOINT LABEL: FC mutant strain 2
VALUE: 17

* * *

# EXPERIMENTAL DETAILS: Metabolic stability test
# Assay type: in vitro ADME, human
# Design: key: % remaining vs amount at 0 min (=100%)
# CONDITION SET: compound 0.5 μmol/L, human liver microsomes 0.5 mg protein/mL, NADPH, 37° C., 30 minutes; amount at 0 minutes defined as 100%
# Protocol: Commercially available pooled human liver microsomes were reacted with the compound of the present invention for a certain time. A residual rate was calculated by the comparison between the reacted sample and an unreacted sample to evaluate the degree at which the compound of the present invention is metabolized in the liver. […] The compound of the present invention in the centrifugation supernatant was quantified by LC/MS/MS or solid-phase extraction (SPE)/MS. […]

SMILES CODE: CN1C(=O)c2c(O)c(=O)c(C(=O)NCc3cccc(Cl)c3F)cn2N2C[C@@H]3CC[C@@H](C3)[C@@H]12
residual rate: 74.2

SMILES CODE: CCN1C(=O)c2c(O)c(=O)c(C(=O)NCc3ccc(F)cc3F)cn2N2C[C@H](COC)C[C@@H]12
residual rate: 84.3

SMILES CODE: C[C@H]1CC[C@H]2N(C)C(=O)c3c(O)c(=O)c(C(=O)NCc4cccc(Cl)c4F)cn3N2C1
residual rate: 84.1

SMILES CODE: CCN1C(=O)c2c(O)c(=O)c(C(=O)NCc3ccc(F)cc3)cn2N2CCCC[C@@H]12
residual rate: 100
